# Test Details: Cmax in rat at 3 mg/kg, po
# Format: ADME, organism-based
# Set-up: dose 3 mg/kg, route oral
# Test Settings: in vivo
Readout Type: Cmax (ng/mL)
The reply should be a number in ng/mL, with the unit left off.

Per the records, this molecule ( Cl.NC(=O)[C@@H]1CC[C@H](c2ccc(OCc3ccccc3F)cc2)N1 [RAXATRIGINE HYDROCHLORIDE] ) has Cmax equal to 226

###

# Test Details: Ratio of drug level in brain to blood in rat
# Type: ADME, tissue-based
# Test Settings: read-out: Kbb
Readout Type: Kp
The answer should be written as a number, with no unit following it.

Please review the entries below; each comes with its answer.
{"Compound": "N#Cc1ccccc1COc1ccc([C@H]2CC[C@@H](C(N)=O)N2)cc1", "Kp": 0.8}
{"Compound": "NC(=O)[C@@H]1CC[C@H](c2ccc(OCc3ccc(F)cc3)cc2)N1", "Kp": 3.5}

Per the records, this compound ( Cl.NC(=O)[C@@H]1CC[C@H](c2ccc(OCc3ccccc3F)cc2)N1 [RAXATRIGINE HYDROCHLORIDE] ) has Kp equal to 6.8

Per the records, this compound ( `NC(=O)[C@@H]1CC[C@H](c2ccc(Oc3ccccc3)cc2)N1` ) has Kp equal to 4.8
